system: TE-5 (Esophageal Squamous Cell Carcinoma); test: Bliss excess, mean over the matrix (fraction); higher = more synergy;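 note: after 72 h of two-drug dosing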
// criterion not met strictly below 0.005 in Bliss excess; criterion met otherwise

See these solved cases before continuing.
compound="CCc1c2c(nc3ccc(O)cc13)-c1cc3c(c(=O)n1C2)COC(=O)[C@]3(O)CC [SN-38] + O=C(c1cc(Cc2n[nH]c(=O)c3ccccc23)ccc1F)N1CCN(C(=O)C2CC2)CC1 [Olaparib] (first compound max 0.3 µM, 7x7, partner max 10 µM)" study_system="TE-5 (Esophageal Squamous Cell Carcinoma)" cat="criterion met"
compound="CN(CCO)CC[C@H](CSc1ccccc1)Nc1ccc(S(=O)(=O)NC(=O)c2ccc(N3CCC([C@@H](O)c4ccccc4-c4ccc(Cl)cc4)CC3)cc2)cc1S(=O)(=O)C(F)(F)F [AZD4320] + CS(=O)(=O)CCNCc1ccc(-c2ccc3ncnc(Nc4ccc(OCc5cccc(F)c5)c(Cl)c4)c3c2)o1 [Lapatinib] (first compound max 1 µM, 7x7, partner max 10 µM)" study_system="TE-5 (Esophageal Squamous Cell Carcinoma)" cat="criterion met"
compound="CS(=O)(=O)CCNCc1ccc(-c2ccc3ncnc(Nc4ccc(OCc5cccc(F)c5)c(Cl)c4)c3c2)o1 [Lapatinib] + NC1(c2ccc(-c3nc4ccn5c(=O)[nH]nc5c4cc3-c3ccccc3)cc2)CCC1 [MK-2206] (first compound max 10 µM, 7x7, partner max 10 µM)" study_system="TE-5 (Esophageal Squamous Cell Carcinoma)" cat="criterion met"
compound="COc1cccc(OCCCN)c1-c1cc(Nc2cnc(C#N)cn2)n[nH]1 [Prexasertib] + CCc1c2c(nc3ccc(O)cc13)-c1cc3c(c(=O)n1C2)COC(=O)[C@]3(O)CC [SN-38] (first compound max 1 µM, 7x7, partner max 0.3 µM)" study_system="TE-5 (Esophageal Squamous Cell Carcinoma)" cat="criterion not met"
compound="Cc1c2c(nn1C)CSCc1cc(n(C)n1)CSc1cc(c3ccccc3c1)OCCCc1c(C(=O)O)n(C)c3c-2c(Cl)ccc13 [AZD5991] + C[C@@H](Nc1cc(F)cc(F)c1)c1cc(C(=O)N(C)C)cc2c(=O)cc(N3CCOCC3)oc12 [AZD8186] (first compound max 1 µM, 7x7, partner max 3 µM)" study_system="TE-5 (Esophageal Squamous Cell Carcinoma)" cat="criterion not met"
compound="Cc1c2c(nn1C)CSCc1cc(n(C)n1)CSc1cc(c3ccccc3c1)OCCCc1c(C(=O)O)n(C)c3c-2c(Cl)ccc13 [AZD5991] + C[C@@H]1COCCN1C2=NC(=NC(=C2)C3(CC3)[S@](=N)(=O)C)C4=C5C=CNC5=NC=C4 [AZD6738] (first compound max 1 µM, 7x7, partner max 10 µM)" study_system="TE-5 (Esophageal Squamous Cell Carcinoma)" cat="criterion not met"
compound="CN(CCO)CC[C@H](CSc1ccccc1)Nc1ccc(S(=O)(=O)NC(=O)c2ccc(N3CCC([C@@H](O)c4ccccc4-c4ccc(Cl)cc4)CC3)cc2)cc1S(=O)(=O)C(F)(F)F [AZD4320] + Nc1ccn([C@@H]2O[C@H](CO)[C@@H](O)C2(F)F)c(=O)n1 [Gemcitabine] (first compound max 1 µM, 7x7, partner max 0.3 µM)" study_system="TE-5 (Esophageal Squamous Cell Carcinoma)" cat="criterion met"
compound="CS(=O)(=O)CCNCc1ccc(-c2ccc3ncnc(Nc4ccc(OCc5cccc(F)c5)c(Cl)c4)c3c2)o1 [Lapatinib] + C[C@@H](Oc1cc(-c2cnn(C3CCNCC3)c2)cnc1N)c1c(Cl)ccc(F)c1Cl [Crizotinib] (first compound max 10 µM, 7x7, partner max 10 µM)" study_system="TE-5 (Esophageal Squamous Cell Carcinoma)" cat="criterion not met"
compound="CN(CCO)CC[C@H](CSc1ccccc1)Nc1ccc(S(=O)(=O)NC(=O)c2ccc(N3CCC([C@@H](O)c4ccccc4-c4ccc(Cl)cc4)CC3)cc2)cc1S(=O)(=O)C(F)(F)F [AZD4320] + Cc1cc2ncnn2cc1Nc1ncc2c(n1)n(C1CCOCC1)c(=O)n2C [AZD7648] (first compound max 1 µM, 7x7, partner max 10 µM)" study_system="TE-5 (Esophageal Squamous Cell Carcinoma)" cat="criterion not met"
compound="CC1(C)CCC(CN2CCN(c3ccc(C(=O)NS(=O)(=O)c4ccc(NCC5CCOCC5)c([N+](=O)[O-])c4)c(Oc4cnc5[nH]ccc5c4)c3)CC2)=C(c2ccc(Cl)cc2)C1 [Venetoclax] + C[C@@H](Nc1cc(F)cc(F)c1)c1cc(C(=O)N(C)C)cc2c(=O)cc(N3CCOCC3)oc12 [AZD8186] (first compound max 1 µM, 7x7, partner max 3 µM)" study_system="TE-5 (Esophageal Squamous Cell Carcinoma)" cat="criterion not met"

## Input Assess whether reported Bliss excess for COc1cccc(OCCCN)c1-c1cc(Nc2cnc(C#N)cn2)n[nH]1 [Prexasertib] + O=C(c1cc(Cc2n[nH]c(=O)c3ccccc23)ccc1F)N1CCN(C(=O)C2CC2)CC1 [Olaparib] (first compound max 1 µM, 7x7, partner max 10 µM) sits at 0.005 or higher.
## Output criterion not met

## Input Check the entry CC(=O)c1c(C)c2cnc(Nc3ccc(N4CCNCC4)cn3)nc2n(C2CCCC2)c1=O [Palbociclib] + Cc1c2c(nn1C)CSCc1cc(n(C)n1)CSc1cc(c3ccccc3c1)OCCCc1c(C(=O)O)n(C)c3c-2c(Cl)ccc13 [AZD5991] (first compound max 10 µM, 7x7, partner max 1 µM) : does Bliss excess equal or exceed 0.005?
## Output criterion not met

## Input Please indicate if the recorded Bliss excess for C=CCn1c(=O)c2cnc(Nc3ccc(N4CCN(C)CC4)cc3)nc2n1-c1cccc(C(C)(C)O)n1 [AZD1775] + C[C@@H]1COCCN1C2=NC(=NC(=C2)C3(CC3)[S@](=N)(=O)C)C4=C5C=CNC5=NC=C4 [AZD6738] (first compound max 1 µM, partner max 10 µM) meets or exceeds 0.005.
## Output criterion not met
